# Test system: MS2 coat protein
# PROCEDURE SUMMARY: apparent KD of MS2 coat protein; designed switch direction (-1 OFF switch, 1 ON switch): -1; higher = weaker reporter binding
# CONDITION SET: input ligand: none
Output true (1) for apparent KD of MS2 coat protein not less than 60 nM; output false (0) otherwise.

Completed entries (count: 5):
* GGAUCGAGUGUGAGGAUAUGCUGGUCCUUGGAUCAGCAGAAGGCACAUGAGGAUCACCCAUGUGAUCAAGAUCC [Eli bmx4 4.76] (Eterna round: R97, puzzle: Brourd's mod of Exclusion 4) | true (1)
* CACCUGAAGAGAGGAUAUGAUACAUGAGGAUCACCCAUGUAAUAAAUGAGAAUUUCGAAUGUAAUUCAGAAGGCUCGAUAAGGC [Ostricism 100 - Jieux - Exclusion NG 2] (Eterna round: R96, puzzle: Exclusion NG 2) | false (0)
* ACUGGAGCAGGAUAUAUAUGACGUGCUUCGGCACGAAGGUCACAUGAGGAUCACCCAUGUAGAAGGGCUCCAGU [E2/9-D1] (Eterna round: R97, puzzle: Exclusion 2) | false (0)
* UCAUGUCCAGAGGAUAUGUAGCGGGAGACCGCAACAGAAGGCUGGACAUGAGGAUCACCCAUGUGCGCCUUCGA [jl-ex3-4.27 ViennaUCT mod] (Eterna round: R97, puzzle: Exclusion 6) | true (1)
* GCAGCAACUCUCACUAACUAAACAUGAGGAUCACCCAUGUCUCAGGAUAUGGUCUGGAUUACAGGCCAGAAGGGAGAAAGCUGC [Eli exng3 - 040] (Eterna round: R96, puzzle: Exclusion NG 3) | false (0)

Q) Please indicate if the recorded apparent KD of MS2 coat protein for UAAUGUAUAUAGGAUAUCUAGCUGGAAACAGCUAGAGAAGGAUGUACAUGAGGAUCACCCAUGUAAAUCAAUAA [Ex6/9-A1] (Eterna round: R97, puzzle: Exclusion 6) meets or exceeds 60 nM.
A) false (0)

Q) Decide: is the reported value of apparent KD of MS2 coat protein for AGUACAAUCACGAAAGUGAUUGUACAAUAAGCUUGUGAAACAUGAGGAUCACCCAUGUCCUCAUAAGCUCGUCUUAU [Mat - Sensor v2 -ver2- JL mod - D69] (Eterna round: R96, puzzle: Sensor v2, turn-off variant 2) equal to or greater than 60 nM?
A) false (0)

Q) Dear colleague, could you confirm whether UUGUAGUUUGUAGGAUAUGGUUAUGUAUGUAAUCUAGAAGGACAUGAGGAUCACCCAUGUGGAGGUAAGUUGGGAAGAAGUAAU [random1] (Eterna round: R96, puzzle: Exclusion NG 1) has apparent KD of MS2 coat protein at or above 60 nM?
A) false (0)

Q) Please tell me: is the sequence GAAAAUGUGGAGGAUAUCGACUUCGAAAGAAGUCGAGAAGGCCACACAUGAGGAUCACCCAUGUGUUGCUUAUA [Omei Ex6 H7] (Eterna round: R97, puzzle: Exclusion 6) at or over 60 nM in terms of apparent KD of MS2 coat protein?
A) false (0)

Sourced from the supplement of paper PMC9170038
